B1: library; numbered along this chain (parent)
chain: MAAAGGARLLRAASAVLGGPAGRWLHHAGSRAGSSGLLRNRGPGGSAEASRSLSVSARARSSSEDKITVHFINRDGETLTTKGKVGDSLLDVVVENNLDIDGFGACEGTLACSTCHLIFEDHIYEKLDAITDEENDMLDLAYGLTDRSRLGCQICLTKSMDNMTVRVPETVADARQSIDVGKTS

- Variants of: B1
- TEST_PROTOCOL: scaled log2 fold change in cell abundance, elesclomol vs control (0 = silent mean, 1 = nonsense mean) (scaled log2 ratio); higher = higher viability under elesclomol (loss of FDX1 cuproptosis function);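 note: variant abundance is its share of total variant reads in each endpoint sample, from next-generation sequencing of the integrated ORF PCR-amplified out of genomic DNA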
- MEASUREMENT_CONDITIONS: with HEK293T FDX1 KO; elesclomol 40 nM; glucose 10 mM; 11 days
READOUT_LABEL: scaled log2 fold change
Please give only the number in your answer, with no unit.

For orientation, consider the following solved cases.
N135R; 1.02
V69S; 0.329
K82L; -0.76
S30E; -0.188
E107N; -0.796
R31P; -0.0123
I118N; -0.696
P168S; 0.443

Enquiry: If you can, please state the reported scaled log2 fold change value of L138I .
Return: 0.0458

Enquiry: Which scaled log2 fold change is listed for A172N ?
Return: -0.223

Enquiry: Query: scaled log2 fold change; subject: S148G
Return: -0.519

Enquiry: Fill in: scaled log2 fold change of H122M is ___
Return: 0.368

Enquiry: Quick check: scaled log2 fold change of L9A ?
Return: 0.241

Enquiry: Returns the measured scaled log2 fold change for the input variant. Input: G6P
Return: 0.0736

Enquiry: Quick check: scaled log2 fold change of D99I ?
Return: -0.0831

Enquiry: What scaled log2 fold change value was documented for this variant, A129F ?
Return: -0.227

Enquiry: So what's the measured scaled log2 fold change for this one? L117C
Return: 0.451

Data credit: the supplement of paper PMC12855868
